Data credit: patent EP4806435A1

assay: Phase 1 clinical trial: plasma pharmacokinetics; format: in vivo, human; conditions: human, plasma, oral, 40 mg, 40 mg QD; cut-off March 2024; read-out: Effective T1/2 (converted)
Observable: half-life
Field note: include the unit after the figure.

### Prompt # lookup: half-life of CC1(C)Oc2cc(Cl)ccc2[C@@H]2OCC3(CCN(CCn4ccnc4)CC3)C[C@H]21
### Response 139 h

----------
assay: Phase 1 clinical trial: plasma pharmacokinetics; format: in vivo, human; details: human, plasma, oral, 180 mg, Cycle 1 Day 1; 180 mg, QD; cut-off April 2023; read-out: Tmax (mean)
Observable: Tmax (h)
Record the value in h, omitting the unit from your answer.

### Prompt # lookup: Tmax of CC1(C)Oc2cc(Cl)ccc2[C@@H]2OCC3(CCN(CCn4ccnc4)CC3)C[C@H]21 [Compound 1]
### Response 11
